Values from the Human Domainome abundance scans (Beltran et al. 2025)

Measured abundance fitness, listed per entry for reference.
B1: POU domain, class 3, transcription factor 4, residues 280 to 335; numbered along this chain, P49335 (parent)
chain: KKRTSIEVSVKGVLETHFLKCPKPAAQEISSLADSLQLEKEVVRVWFCNRRQKEKR

variants of: B1; assay: abundance fitness (aPCA) (normalised: wild type 0, dead -1); higher = more abundant; growth selection in yeast, the domain comes from the species named; conditions: Homo sapiens

{"columns": ["macromolecule sequence", "abundance fitness"],
 "data": [
  ["KKRTSIEVSVKGVLETHFLKCPKPAAQEISSHADSLQLEKEVVRVWFCNRRQKEKR [L32H]", -0.86],
  ["KKRTSIEVSVKGVLETHFLKCPKPAAQEISSLADSLQLEKEVVVVWFCNRRQKEKR [R44V]", -0.84],
  ["KKHTSIEVSVKGVLETHFLKCPKPAAQEISSLADSLQLEKEVVRVWFCNRRQKEKR [R3H]", -0.277],
  ["KKRTSIEVSVKGVLETHFLKCPKPAAQEISVLADSLQLEKEVVRVWFCNRRQKEKR [S31V]", 0.013],
  ["KKRTSIEASVKGVLETHFLKCPKPAAQEISSLADSLQLEKEVVRVWFCNRRQKEKR [V8A]", 0.354],
  ["KKRTSIEVSVKGVLETHFLKCPKPAAQEISSLADSLQLEKEVVRVWFCHRRQKEKR [N49H]", -0.46],
  ["KKRTSIEVSVKGVLETHFLKCPKPAAQEISFLADSLQLEKEVVRVWFCNRRQKEKR [S31F]", -0.059],
  ["KKRTSIEVSVKGVLETHFLKCPKPAAQEISSLADSLQLEKEVVRVWFCNRDQKEKR [R51D]", -0.839],
  ["KDRTSIEVSVKGVLETHFLKCPKPAAQEISSLADSLQLEKEVVRVWFCNRRQKEKR [K2D]", -0.342],
  ["KKRTSIEVSVKGVLETHFLKGPKPAAQEISSLADSLQLEKEVVRVWFCNRRQKEKR [C21G]", -0.724],
  ["KKRTSIEVSVKGVLEDHFLKCPKPAAQEISSLADSLQLEKEVVRVWFCNRRQKEKR [T16D]", 0.157],
  ["KKRTSIEVSVKGVLRTHFLKCPKPAAQEISSLADSLQLEKEVVRVWFCNRRQKEKR [E15R]", -0.985],
  ["KKRTSIEVSVKGVLETHFLKCPKPAAQEISSLADSLQLKKEVVRVWFCNRRQKEKR [E39K]", -0.583],
  ["KKRTSIEVSVKGVLETHFLKCPKPATQEISSLADSLQLEKEVVRVWFCNRRQKEKR [A26T]", -0.017],
  ["KKRTSIEVSVKGVKETHFLKCPKPAAQEISSLADSLQLEKEVVRVWFCNRRQKEKR [L14K]", -0.655],
  ["KKRTSIEVSNKGVLETHFLKCPKPAAQEISSLADSLQLEKEVVRVWFCNRRQKEKR [V10N]", -0.279],
  ["KKRTSIEVGVKGVLETHFLKCPKPAAQEISSLADSLQLEKEVVRVWFCNRRQKEKR [S9G]", 0.172]
]}
